// data source = patent US20230117034A1

target: CDK12 (nuclear staining in CAL-120 cells) (Homo sapiens); construct: endogenous in cells; host or cells: CAL-120 human breast cancer cells (DSMZ ACC 459); assay: CDK12 nuclear protein level: immunofluorescence/high content analysis (CAL-120); format: cell-based; details: CAL-120 cells, 24 h, immunofluorescence; 50% reduction of nuclear CDK12 staining intensity; median; read-out: CDK12 degradation IF, DC50- [mol/l] (median)
Sequence (Q9NYV4 whole entry): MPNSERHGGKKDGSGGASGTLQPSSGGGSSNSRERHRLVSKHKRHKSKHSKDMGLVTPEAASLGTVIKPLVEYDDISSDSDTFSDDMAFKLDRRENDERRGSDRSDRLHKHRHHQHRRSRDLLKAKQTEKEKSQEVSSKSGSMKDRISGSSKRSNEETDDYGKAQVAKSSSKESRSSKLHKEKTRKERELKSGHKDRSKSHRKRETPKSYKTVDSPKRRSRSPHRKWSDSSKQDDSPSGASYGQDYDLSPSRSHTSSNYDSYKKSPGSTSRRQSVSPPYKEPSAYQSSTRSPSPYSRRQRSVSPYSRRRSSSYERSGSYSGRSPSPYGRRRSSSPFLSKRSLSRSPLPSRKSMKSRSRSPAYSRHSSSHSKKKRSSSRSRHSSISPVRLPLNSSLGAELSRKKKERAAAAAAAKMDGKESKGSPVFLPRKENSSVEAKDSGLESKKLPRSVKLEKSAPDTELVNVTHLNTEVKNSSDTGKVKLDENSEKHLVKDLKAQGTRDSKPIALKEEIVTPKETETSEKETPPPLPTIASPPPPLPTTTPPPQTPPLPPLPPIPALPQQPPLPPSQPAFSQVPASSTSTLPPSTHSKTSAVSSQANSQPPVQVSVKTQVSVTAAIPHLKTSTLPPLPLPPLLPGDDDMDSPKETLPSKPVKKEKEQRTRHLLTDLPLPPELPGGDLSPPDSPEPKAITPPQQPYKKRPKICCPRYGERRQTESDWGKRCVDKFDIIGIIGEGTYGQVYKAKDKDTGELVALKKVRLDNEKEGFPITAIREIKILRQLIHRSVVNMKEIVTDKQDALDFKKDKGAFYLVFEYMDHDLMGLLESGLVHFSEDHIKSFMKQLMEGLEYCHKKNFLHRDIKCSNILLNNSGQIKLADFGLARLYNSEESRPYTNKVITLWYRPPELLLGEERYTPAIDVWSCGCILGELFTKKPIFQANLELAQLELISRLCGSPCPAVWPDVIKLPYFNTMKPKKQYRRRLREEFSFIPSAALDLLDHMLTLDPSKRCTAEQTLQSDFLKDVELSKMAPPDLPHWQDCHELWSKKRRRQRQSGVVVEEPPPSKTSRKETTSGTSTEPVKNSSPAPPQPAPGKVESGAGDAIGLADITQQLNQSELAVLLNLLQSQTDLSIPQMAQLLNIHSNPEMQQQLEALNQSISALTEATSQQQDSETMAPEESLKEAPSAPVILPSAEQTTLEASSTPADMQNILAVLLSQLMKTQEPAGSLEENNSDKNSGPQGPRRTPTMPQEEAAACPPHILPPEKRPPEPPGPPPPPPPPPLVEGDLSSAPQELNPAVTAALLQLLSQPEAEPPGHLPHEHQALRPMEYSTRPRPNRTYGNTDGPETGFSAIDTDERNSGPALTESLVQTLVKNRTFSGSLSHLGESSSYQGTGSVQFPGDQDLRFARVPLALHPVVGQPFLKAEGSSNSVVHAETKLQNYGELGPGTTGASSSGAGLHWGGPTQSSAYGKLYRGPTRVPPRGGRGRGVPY
Sequence (O75909 whole entry partner): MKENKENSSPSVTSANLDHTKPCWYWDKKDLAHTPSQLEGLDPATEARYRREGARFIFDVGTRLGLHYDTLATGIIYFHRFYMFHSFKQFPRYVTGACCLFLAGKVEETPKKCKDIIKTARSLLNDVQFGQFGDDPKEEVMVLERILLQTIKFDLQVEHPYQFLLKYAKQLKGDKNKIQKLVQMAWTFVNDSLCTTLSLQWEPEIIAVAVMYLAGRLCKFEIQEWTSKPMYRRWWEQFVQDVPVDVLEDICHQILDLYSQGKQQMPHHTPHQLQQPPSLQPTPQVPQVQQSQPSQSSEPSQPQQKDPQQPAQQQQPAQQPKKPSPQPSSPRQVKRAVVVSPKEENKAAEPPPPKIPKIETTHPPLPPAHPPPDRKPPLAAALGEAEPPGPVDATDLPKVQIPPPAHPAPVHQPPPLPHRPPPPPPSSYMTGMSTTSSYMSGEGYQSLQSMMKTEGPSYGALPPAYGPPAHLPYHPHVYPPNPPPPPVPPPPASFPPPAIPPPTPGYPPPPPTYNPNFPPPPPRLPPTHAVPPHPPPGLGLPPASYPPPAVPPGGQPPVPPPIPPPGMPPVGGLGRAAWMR
test readout: DC50 (nM)
// return numeric value only (unit: nM, not printed)

[
  {
    "compound": "CCc1cnn2c(NCc3nc4c(F)c(F)ccc4[nH]3)nc(N3CCN(C)CC3)nc12.O=CO",
    "DC50 [nM]": 0.591
  }
]

Qu. Which DC50 value belongs to CN(C)CCOc1nc(NCc2nc3ccccc3[nH]2)n2ncc(Br)c2n1 ?
Ans. 66

Qu. Also Cc1cnn2c(NCc3nc4ccccc4[nH]3)nc(N3CCOCC3)nc12 , if possible.
Ans. 22.3

Qu. Also CN1CCN(c2nc(NCc3nc4cc(Cl)ccc4[nH]3)n3ncc(C(F)(F)F)c3n2)CC1 , if possible.
Ans. 4.22

Qu. Also c1ccc2[nH]c(CNc3nc(N4C[C@@H]5C[C@H]4CO5)nc4c(C5CC5)cnn34)nc2c1 , if possible.
Ans. 8.47
